Hello, the source for this data is ChEMBL document CHEMBL1201862, in case you need it.

# GI50 per record follows
# Test system: ACHN
# method_notes: NCI tumour cell line growth inhibition, 48 h
Active and inactive are the calls of the source. Rule as the data show it: active = GI50 up to about 1.1 µM and inactive = higher. Where a SMILES comes first, the peptide text is derived from it. [ ]: non-standard residue; d: D form. The star is where a group is joined. Phe(4-NO2) = N[CH](Cc1ccc([N+](=O)[O-])cc1)C(=O)O; Boc = CC(C)(C)OC(=O)*; OtBu = CC(C)(C)O*

Some compounds with recorded GI50:
compound	readout_value
C[N+](C)([O-])C12CC3CC(CC(C3)C1)C2	26.4 µM (inactive)
O=C(Nc1ccc2oc(=O)c(C(=O)O)cc2c1)Oc1ccccc1	> 100 µM (inactive)
COC(=O)C1CCC(=S)N1C(C)=O (stereo unspecified)	> 100 µM (inactive)

Value of measured GI50 for the entry `Cc1ccc(C(=O)Nc2ccc(CP(=O)(O)O)cc2CP(=O)(O)O)cc1NC(=O)Nc1cc(C(=O)Nc2ccc(CP(=O)(O)O)cc2CP(=O)(O)O)ccc1C` : > 100 µM (inactive)

Value of measured GI50 for the entry `COC(C)(C)[C@@H]1CCCN1C1=C(C)C(=O)OC1` : > 100 µM (inactive)

Value of measured GI50 for the entry `O=C(Oc1cccnc1)c1cc2cc(CCl)ccc2oc1=O` : 18.9 µM (inactive)

Value of measured GI50 for the entry CCN1C(=O)N(C)C(O)c2c1nc1ccccn1c2=O (stereo unspecified) : 0.232 µM (active)

Value of measured GI50 for the entry Cc1ccc(/N=N/N(C)C(C)C(O)Cc2ccccc2)cc1 (stereo unspecified) : 78.5 µM (inactive)

Value of measured GI50 for the entry `NNC(=O)/C(=C/c1cccc([N+](=O)[O-])c1)NC(=O)c1ccccc1` : > 100 µM (inactive)

Value of measured GI50 for the entry CC(=O)NC(CCC(=O)OC(C)(C)C)C(=O)NC(CCC(=O)OC(C)(C)C)C(=O)NC(Cc1ccc([N+](=O)[O-])cc1)C(=O)NC(CCCCNC(=O)OC(C)(C)C)C(=O)NC(CCCCNC(=O)OC(C)(C)C)C(=O)NCC(=O)O (stereo unspecified) (Ac-E(OtBu)E(OtBu)[Phe(4-NO2)]K(Boc)K(Boc)G-OH; configuration not given here) : > 100 µM (inactive)

Value of measured GI50 for the entry `O=[N+]([O-])c1nccn1CCCNc1c2ccccc2[n+]([O-])c2ccccc12` : > 100 µM (inactive)
